Examples of compounds with documented %Inh follow.
System: MAP4K2
Settings: concentration: 1 μM,replicates: in singlicate; n = 1;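 note: KINOMEscan kinase panel screen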
quantity: %Inh

> print(dat)
                                    compound  quantity  observed
 1  C[C@H]1Oc2cc(cnc2N)-c2c(nn(C)c2C#N)CN(C)C(=O)c2ccc(F)cc21      %Inh        0%
 2  CNC(=O)c1ccccc1Sc1ccc2c(/C=C/c3ccccn3)n[nH]c2c1      %Inh       54%
 3  Cl.Cl.NC[C@H](Cc1ccc(C(F)(F)F)cc1)NC(=O)c1cc(Br)c(-c2ccnc3[nH]ccc23)s1      %Inh        0%
 4  Cc1n[nH]c2ccc(-c3cc(OC[C@@H](N)Cc4ccccc4)cnc3-c3ccoc3)cc12.O=C(O)C(F)(F)F.O=C(O)C(F)(F)F      %Inh     98.6%
 5  CC(C)N1C(=O)Cc2cc(Nc3ncc(C(F)(F)F)c(NCc4cccc(S(C)(=O)=O)c4)n3)ccc21      %Inh        0%
 6  C=CC(=O)Nc1cc2c(Nc3ccc(F)c(Cl)c3)ncnc2cc1OCCCN1CCOCC1      %Inh        1%
 7  CCN(CC)CCCCNc1ncc2cc(-c3c(Cl)cccc3Cl)c(NC(=O)NC(C)(C)C)nc2n1      %Inh       51%
 8  C[C@@H]1CCN(C(=O)CC#N)C[C@@H]1N(C)c1ncnc2[nH]ccc12      %Inh        0%
 9  Cc1ccc(-n2nc(C(C)(C)C)cc2NC(=O)Nc2ccc(OCCN3CCOCC3)c3ccccc23)cc1      %Inh        0%
10  Cl.Cl.NC[C@H](CC1CCCCC1)NC(=O)c1cc(Br)c(-c2ccnc3[nH]ccc23)s1      %Inh       76%
11  Cc1cc(C(=O)Nc2ccc(Oc3ccc4nc(NC(=O)C5CC5)cn4n3)cc2)nn1-c1ccccc1      %Inh        0%
12  CN(C)CC(O)COc1ccc(Nc2nccc(-c3cnn4nc(N5CCOCC5)ccc34)n2)cc1 (stereo not drawn)      %Inh       29%

====

Examples of molecules with documented %Inh follow.
System: MLK1
Construct: gene MAP3K9
Conditions: concentration: 1 μM,replicates: in singlicate; n = 1
quantity: %Inh (%)

> print(dat)
                                    molecule  observed
 1  Cc1occc1-c1nc(N)c(OC[C@@H](N)Cc2c[nH]c3ccccc23)cc1-c1cc2c(C)n[nH]c2cn1        29
 2  CCN(CC)CCOc1ccc(Nc2ncc3cc(-c4c(Cl)cccc4Cl)c(=O)n(C)c3n2)cc1        87
 3  CCN(CC)CCCCNc1ncc2cc(-c3c(Cl)cccc3Cl)c(NC(=O)NC(C)(C)C)nc2n1         0
 4  Cl.Oc1cc(-c2nc(-c3ccccc3)[nH]c2-c2ccncc2)ccc1Cl         0
 5  CN(C)CCOc1ccc(-c2cc(-c3c[nH]nc3-c3ccccn3)ccn2)cc1        14
 6  C[C@@H]1CCN(C(=O)CC#N)C[C@@H]1N(C)c1ncnc2[nH]ccc12         0
 7  COc1ccc(C[C@@H](CN)NC(=O)c2cc(Br)c(-c3ccnc4[nH]ccc34)s2)cc1.Cl.Cl        13
 8  CN(C)CC(O)COc1ccc(Nc2nccc(-c3cnn4nc(N5CCOCC5)ccc34)n2)cc1 (centres unmarked)         0
 9  C=CC(=O)Nc1cc2c(Nc3ccc(F)c(Cl)c3)ncnc2cc1OCCCN1CCOCC1         0
10  C[C@H]1Oc2cc(cnc2N)-c2c(nn(C)c2C#N)CN(C)C(=O)c2ccc(F)cc21        13
11  Cc1cc(C(=O)Nc2ccc(Oc3ccc4nc(NC(=O)C5CC5)cn4n3)cc2)nn1-c1ccccc1        20
12   CC(C)Nc1cc(-c2ccc3c(N)n[nH]c3c2)nc(N)n1        10
13  NC(=O)c1cc(-c2ccccc2)cc2c(C3CCNCC3)c[nH]c12         9
14  Cc1n[nH]c2ccc(-c3cc(OC[C@@H](N)Cc4ccccc4)cnc3-c3ccoc3)cc12.O=C(O)C(F)(F)F.O=C(O)C(F)(F)F         0
15  CCn1c(-c2nonc2N)nc2c(C#CC(C)(C)O)nc(OCCN)cc21.Cl.Cl         0
16  Cl.Cl.NC[C@H](Cc1ccc(C(F)(F)F)cc1)NC(=O)c1cc(Br)c(-c2ccnc3[nH]ccc23)s1         4
17  CC(C)N1C(=O)Cc2cc(Nc3ncc(C(F)(F)F)c(NCc4cccc(S(C)(=O)=O)c4)n3)ccc21      99.7
